system: Escherichia coli TOP10; experiment: shrunken log2 fold change of peptide-encoding DNA abundance (4.5 h post-induction vs induction); higher = less antimicrobial activity (less host growth inhibition); settings: time post-induction: 4.5 h; library: site-saturation at positions 5, 18, 19, 20;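 further: peptides expressed intracellularly from a pBAD plasmid library in pooled LB shake-flask culture, induced with 0.3% L-arabinose, DNA abundance read by NGS, three biological replicates, DESeq2 with apeglm shrinkage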
Decide by shrunken log2 fold change: equal to or exceeding -0.08 means Met, less means Not met.

Observe how each entry below is paired with its result.
record.sequence	classification
RRIRMRPPRLPRPRPRPMYDPRP	Met
RRIRWRPPRLPRPRPRPSFEPRP	Not met
RRIRARPPRLPRPRPRPYIVPRP	Not met
RRIRVRPPRLPRPRPRPFPHPRP	Not met
RRIRSRPPRLPRPRPRPNMNPRP	Not met

# check: shrunken log2 fold change of `RRIRVRPPRLPRPRPRPVHHPRP` is greater than or equal to -0.08 Not met

# check: shrunken log2 fold change of `RRIRRRPPRLPRPRPRPVFMPRP` is greater than or equal to -0.08 Met

hey, is shrunken log2 fold change for this one >= -0.08? `RRIRYRPPRLPRPRPRPSGSPRP` Met

Decide: is the reported value of shrunken log2 fold change for `RRIRGRPPRLPRPRPRPSYGPRP` equal to or greater than -0.08? Not met

Exam item: decide whether the reported shrunken log2 fold change for `RRIRGRPPRLPRPRPRPHYCPRP` is at least -0.08. Met

Determine whether measured shrunken log2 fold change meets or exceeds -0.08 for `RRIRTRPPRLPRPRPRPGTAPRP` Met

Item `RRIRTRPPRLPRPRPRPIQAPRP` with shrunken log2 fold change of -0.08 or above? Met

Determine whether this sequence has shrunken log2 fold change no lower than -0.08: `RRIRIRPPRLPRPRPRPNTCPRP` Not met

Would you say `RRIRIRPPRLPRPRPRPLVFPRP` shows shrunken log2 fold change at minimum -0.08? Not met

Is reported shrunken log2 fold change greater than or equal to -0.08 here: `RRIRCRPPRLPRPRPRPVSRPRP` Met
